These data points were gathered from patent US20260069689A1.

- MEASUREMENT_TARGET: SARS-COV-2 RBD extracellular domain expressed with a C-terminal mouse IgG2a Fc (SARS-CoV-2)
- TEST_PROTOCOL: Biacore SPR, mAb captured on anti-hFc, 37 C
READOUT: kon

Below: 4 binders and their reported kon.
mAb15162 (antibody, V domains shown) VH: EVQLVETGGGLIQPGGSLRLSCAASEFIVSRNYMSWVRQAPGKGLEWVSLIYSGGSTYYADSVKGRFTISRDNSKNILYLQMNSLRAEDTAVYYCARDRGGISDYWGQGTLVTVSS VL: DIQMTQSPSSLSASVGDRVTITCQASQDINKYLNWFQQKPGKAPKLLIYDASNLETGVPSRFSGSGSGTDFTFTISSLQPEDIATYYCQQYDNLPRTFGQGTKLEIKR: 200000 M⁻¹ s⁻¹
mAb14294 (antibody, V domains shown) VH: EVQLVESGGGLVQPGGSLRLSCAASGFTFSNHWMDWVRQAPGKGLVWVSRINSDGSSTDYADSVRGRFTMSRDNAKNTLYLQMSSLRAEDTAVYYCAREGMIFGAVIIPGWYFDLWGRGALVTVSS VL: EIVLTQSPGTLSLSPGERATLSCRASQSVSSSQLAWYQQKPGQAPRLLIYGASSRATGIPDRFSGSGSGTDFTLTISRLEPEDFAVYYCQQYDSFGQGTKLEIKR: 906000 M⁻¹ s⁻¹
mAb13459 (antibody, V domains shown) VH: EVQLVESGGGLVQPGRSLRLSCAASGFTFDDYAMHWVRQAPGKGLEWVSGISWNSGSIGYADSVKGRFTISRDNAKNSLYLQMNSLRAEDTALYYCAKDIGITTPYWGQGTLVTVSS VL: AIQMTQSPSSLSASVGDRVTITCRASQDIRNDLGWYQQKPGKAPKLLIYSASSLQTGVPSRFSGSGSGTDFTLTISSLHPEDFATYYCLQDYNYVWTFGQGTKVEIKR: 985000 M⁻¹ s⁻¹
mAb15157 (antibody, V domains shown) VH: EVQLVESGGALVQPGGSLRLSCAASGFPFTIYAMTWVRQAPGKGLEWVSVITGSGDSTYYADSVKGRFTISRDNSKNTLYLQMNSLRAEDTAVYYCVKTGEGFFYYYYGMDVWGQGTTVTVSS VL: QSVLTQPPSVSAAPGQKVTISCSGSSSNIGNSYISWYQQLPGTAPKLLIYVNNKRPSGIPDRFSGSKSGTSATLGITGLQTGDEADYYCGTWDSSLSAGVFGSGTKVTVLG: 922000 M⁻¹ s⁻¹

Now take the following binder into account.
input: Requested read-out: kon. Entry: mAb14257 (antibody, V domains shown) VH: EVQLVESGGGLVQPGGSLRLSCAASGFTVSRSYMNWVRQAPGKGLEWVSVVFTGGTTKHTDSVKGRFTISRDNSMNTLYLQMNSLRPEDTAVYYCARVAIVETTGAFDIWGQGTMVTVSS VL: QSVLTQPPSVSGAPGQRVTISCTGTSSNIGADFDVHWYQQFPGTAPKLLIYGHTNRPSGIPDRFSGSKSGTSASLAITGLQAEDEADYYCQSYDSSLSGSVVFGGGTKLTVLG
output: 2.81e+06 M⁻¹ s⁻¹
